parameter: melting point

Completed entries (count: 3):
>>> result("NC1CCCOc2ccccc21 (stereo not drawn)")
"69 to 71 °C"
>>> result("Nc1ccc2[nH]c(CC3CCCCC3)nc2c1")
"267 to 269 °C"
>>> result("O=C(O)CN1C(=O)C2CC=CCC2C1=O (stereo not drawn)")
"83 to 85 °C"

Incoming: Need melting point, item COc1ccc(OC(C)C(=O)O)cc1 (stereo not drawn)
Outgoing: 91 to 93 °C

Incoming: Same question for CC(=O)NCCc1ccc(S(=O)(=O)Cl)s1 please.
Outgoing: 87 to 89 °C

Incoming: Try Nc1cc(Cl)c(-c2cc(Cl)c(N)cc2Cl)cc1Cl next.
Outgoing: 135 to 140 °C

Incoming: Now consider NCCNS(=O)(=O)Cc1ccon1 .
Outgoing: 89 to 91 °C

Incoming: Please do the same for CC(C)Oc1cncc(C(=O)O)c1 as well.
Outgoing: 172 to 174 °C
